Record form. Attribute: IC50. Fill in for each entry.
Biological target: Glycogen synthase kinase-3 alpha (Homo sapiens)
Sequence (P49840 whole entry): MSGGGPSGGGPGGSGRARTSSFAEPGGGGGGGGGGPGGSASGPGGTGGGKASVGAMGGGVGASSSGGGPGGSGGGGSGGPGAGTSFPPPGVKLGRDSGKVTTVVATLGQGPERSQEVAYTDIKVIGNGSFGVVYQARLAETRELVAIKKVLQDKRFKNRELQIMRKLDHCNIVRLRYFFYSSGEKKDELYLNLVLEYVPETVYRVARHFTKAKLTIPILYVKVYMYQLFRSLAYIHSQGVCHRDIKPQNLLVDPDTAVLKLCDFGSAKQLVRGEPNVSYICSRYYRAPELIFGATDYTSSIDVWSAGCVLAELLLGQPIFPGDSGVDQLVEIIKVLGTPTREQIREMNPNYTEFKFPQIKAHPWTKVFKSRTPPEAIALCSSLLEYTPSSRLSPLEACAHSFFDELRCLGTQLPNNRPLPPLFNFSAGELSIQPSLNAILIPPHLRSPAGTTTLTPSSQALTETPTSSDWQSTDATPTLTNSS

CCC1(c2cccc(-c3c(C)nn(C)c3C)c2)C2=C(CC(C)(C)CC2=O)NC2N=NC(C)=C21 (stereo not drawn) [US20250313563, Compound 883995] = < 100 nM

Record IC50 for all entries; do not skip any.
1. CC[C@@]1(c2cccc(-c3c(C)nn(C)c3C)c2)C2=C(CC(C)(C)NC2=O)NC2N=NC(C(F)(F)F)=C21 (stereo partly drawn) [US20250313563, Compound 948421]
2. C[C@@H]1CCC[C@]2(C1)C1=C(N=NC1)NC1=C2C(=O)CC(C)(C)C1 [US20250313563, Compound 874537]
3. CC[C@]1(c2cccc(-c3cncn3C)c2)C2=C(CC(C)(C)NC2=O)NC2N=NC(C(F)(F)F)=C21 (stereo partly drawn) [US20250313563, Compound 949003]
4. CCC1(c2ccc(F)cc2)C2=C(N=NC2)NC2=C1C(=O)CC(C)(C)C2 (stereo not drawn) [US20250313563, Compound 772965]
5. CC[C@]1(c2cccc(N(C)c3ccnc(C)c3)c2)C2=CN=NC2NC2=C1C(=O)CC(C)(C)C2 (stereo partly drawn) [US20250313563, Compound 932645]
6. CC1(C)CC(=O)C2=C(C1)NC1=C(CN=N1)C21CN(C(=O)OCc2ccccc2)C1 [US20250313563, Compound 889568]
7. CC[C@]1(c2cccc(C3=C4CC=CC(Cl)=C4N=CC3)c2)C2=CN=NC2NC2=C1C(=O)NC(C)(C)C2 (stereo partly drawn) [US20250313563, Compound 948650]

< 100 nM
100 to 1000 nM
100 to 1000 nM
1000 to 5000 nM
100 to 1000 nM
100 to 1000 nM
> 5000 nM

----------
pIC50, Glycogen synthase kinase-3 beta (Homo sapiens, UniProt P49841): measured values
pIC50: −log10 of the molar value.

Recorded pIC50, per entry:
CCC1(c2cccc(N(C)c3cnn(C)c3)c2)C2=CN=NC2NC2=C1C(=O)CC(C)(C)C2 (stereo not drawn) = 5.30 to 6.00
Cn1nc(C(F)(F)F)cc1S(=O)(=O)N1CCC2(CC1)C1=C(N=NC1)NC1=C2C(=O)CC(C)(C)C1 = > 7.00
CC[C@H]1CCN1c1cccc([C@@]2(CC)C3=CN=NC3NC3=C2C(=O)CC(C)(C)C3)c1 (stereo partly drawn) = 6.00 to 7.00

Record pIC50 for all entries; do not skip any.
1. CC[C@]1(c2cccc(S(C)(=O)=O)c2)C2=C(CC(C)(C)NC2=O)NC2N=NC(C)=C21 (stereo partly drawn)
2. CC1(C)CC(=O)C2=C(C1)NC1=C(CN=N1)C21CN(CC(F)F)C1
3. CC[C@@]1(c2cccc(-c3ccncc3C)c2)C2=CN=NC2NC2=C1C(=O)N[C@]1(CCCOC1)C2 (stereo partly drawn)
4. CCC1(c2cccc(-c3ccnc(C)c3C)c2)C2=C(CC(C)(C)NC2=O)NC2N=NC(C)=C21 (stereo not drawn)
5. CCC1(c2cccc(-c3ccncc3S(C)(=O)=O)c2)C2=CN=NC2NC2=C1C(=O)CC(C)(C)C2 (stereo not drawn)
6. CCC1(c2cccc(-c3cncn3C)c2)C2=CN=NC2NC2=C1C(=O)CC(C)(C)C2 (stereo not drawn)
7. CC1(C)CC(=O)C2=C(C1)NC1=C(CN=N1)C21CCN(S(=O)(=O)c2c(F)cc(F)cc2F)CC1

["> 7.00", "6.00 to 7.00", "> 7.00", "5.30 to 6.00", "> 7.00", "> 7.00", "> 7.00"]
